Each record here notes measured Kd.
B1: NELF-E aptamer (parent)
chain: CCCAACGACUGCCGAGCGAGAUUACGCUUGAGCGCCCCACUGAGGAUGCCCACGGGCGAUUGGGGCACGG

variants of: B1; experiment: HiTS-RAP; details: with NELF-E (Drosophila)
# number only, unit nM dropped from output

Here's what some known entries look like.
> print(dat)
   mutant.id  result.number
1       A39G           8.97
2   A5U C38U           10.6
3   A4G A15U           6.63
4   A4U C37A             13
5  U10G G64C           6.95

Shift focus to the following entry.
Looking up A5G C12G , I see its Kd listed as 6.02
